Where do the numbers come from? From PubChem BioAssay AID1963973.

System: 883617-216-R-J1-PDC tumor spheroids, viability;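 further: spheroids exposed to agents for 7 days before the viability read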
test-method-notes: Anticancer human tumor 883617-216-R-J1-PDC patient-derived bladder carcinoma cell line growth inhibition [PI3K]
assay-conditions: second compound 1 µM; first compound 0.0316 µM; stronger effect = lower value; spheroids with HUVEC and MSC
We label by threshold. Values of viability, T/C strictly beneath 60% are 1 (yes). Values of 60% and up are 0 (no).

compound	category
C=CC(=O)N1CCN(c2nc(=O)n(-c3c(C)ccnc3C(C)C)c3nc(-c4c(O)cccc4F)c(F)cc23)C(C)C1 (stereo not given) + CC(Nc1ncnc2nc[nH]c12)c1cc2cccc(Cl)c2c(=O)n1-c1ccccc1	0 (no)

[Q] Bench note: check whether CNC(=O)c1ccc(N2C(=S)N(c3ccc(C#N)c(C(F)(F)F)c3)C(=O)C2(C)C)cc1F + Cc1nc(NC(=O)N2CCCC2C(N)=O)sc1-c1ccnc(C(C)(C)C(F)(F)F)c1 shows viability, T/C below 60%
[A] 1 (yes)

[Q] Follow-up entry: CC1(C)CCC(CN2CCN(c3ccc(C(=O)NS(=O)(=O)c4ccc(NCC5CCOCC5)c([N+](=O)[O-])c4)c(Oc4cnc5[nH]ccc5c4)c3)CC2)=C(c2ccc(Cl)cc2)C1 + Cc1nc(NC(=O)N2CCCC2C(N)=O)sc1-c1ccnc(C(C)(C)C(F)(F)F)c1
[A] 1 (yes)

[Q] Now try Cn1ncc(Cl)c1-c1cc(C(=O)NC(CN)Cc2cccc(F)c2)sc1Cl (stereo not given) + CC(Nc1ncnc2nc[nH]c12)c1cc2cccc(Cl)c2c(=O)n1-c1ccccc1 .
[A] 0 (no)
